Data origin: patent US20180036405A1

Each record here notes measured koff.
- ASSAYED TARGET: T1, human dimeric EGFR (EGFR.mFc) (human)
- T1 construct: Soluble dimeric EGFR construct
- MEASUREMENT DESCRIPTION: SPR 37C, mAb captured by anti-human Fc, EGFR.mFc analyte

- BINDER: "H1H163P (antibody, human IgG1, V domains shown, Human IgG1 Fc (H1H)) VH: QVQLVESGGGVVQPGRSLRLSCAASGFTFSNYGMHWVRQAPGKGLEWVTLIEHDGSNKNYVDSVKGRFTISRDNSKNTLYLQMNSLRVEDTAVYYCAKDRITGTPWYGMDVWGQGTTVTVSS VL: DIQMTQSPSSLSASVGDRVTITCRASQDIADYLAWFQQKPGKAPKSLIFAASSLESWVPLKFSGSGSGTDFTLTISSLQPEDFATYYCQQYNRFPITFGQGTRLEIK"
  koff / s⁻¹: "2.12e-06"
- BINDER: "H1H102N (antibody, human IgG1, V domains shown, Tested in human IgG1 Fc format (H1H); also called H1M102N) VH: QVQLQESGPGLVQPSQTLSLTCTVSGGSVSSGDYYWSWIRQHPGKGLEWIGHIYYSGITYYNPSLESRVTITLDTSKNQFSLNLRSVTAADTAVHYCARTAIIGTMDNWGRGTLVTVSS VL: EIVMTQSPATLSVSPGERATLSCRASQSVSSNLAWYQQKPGQAPRLLIYDASTRATGFPARFSGSGSGTEFTLTISSLQSEDFAVYYCQQYNTWWTFGQGTKVEIK"
  koff / s⁻¹: "5.62e-05"
